// data source = the supplement of paper PMC10567573

Quick reference for protein stability index among some variants
B1: BTBD1 (parent)
chain: YGSIHGPTDYQVNIQIIEYEKKQT

Variants of: B1
Experiment: protein stability index of a GFP-peptide fusion (GPS, HEK-293T) (PSI 1-6); higher = more stable;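 further: lentivirally expressed fusions sorted by FACS into six bins by GFP to DsRed ratio, PSI derived from sequencing read proportions per bin multiplied by bin number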
Conditions: c terminus: a fixed tail appended
Please reply with the number alone, leaving off any unit.

Known results for variants:
YGSIHGPTPYQVNIQIIEYEKKQT [D9P]	2.44
YGSIHGPTDYQVWIQIIEYEKKQT [N13W]	1.85
YGSIHGPTDYQVNIQIIEYEKKET [Q23E]	2.72
YGSIHSPTDYQVNIQIIEYEKKQT [G6S]	3.15

Prompt: Fill blank: measured protein stability index of the variant YGSIHEPTDYQVNIQIIEYEKKQT [G6E] is ____.
Response: 3.54

Prompt: Fill blank: measured protein stability index of the variant YGSIHGPTDYQVNIQIILYEKKQT [E18L] is ____.
Response: 3.33

Prompt: Fill blank: measured protein stability index of the variant YNSIHGPTDYQVNIQIIEYEKKQT [G2N] is ____.
Response: 3.28

Prompt: Fill blank: measured protein stability index of the variant YGSIHGPTDYQVNIPIIEYEKKQT [Q15P] is ____.
Response: 3.08

Prompt: Fill blank: measured protein stability index of the variant YGSIHGPTDYQVNIQIIEYWKKQT [E20W] is ____.
Response: 2.15

Prompt: Fill blank: measured protein stability index of the variant YVSIHGPTDYQVNIQIIEYEKKQT [G2V] is ____.
Response: 3.34

Prompt: Fill blank: measured protein stability index of the variant YGSIHGPTDYQVNIQIYEYEKKQT [I17Y] is ____.
Response: 2.77
